- System: RPE1-hTERT TP53-/- Cas9 CCNE1-high cells
- procedureSummary: Cell proliferation assay (Incucyte growth inhibition)
- Format: cell-based
- setupConditions: read-out: RP-6306 EC50 (mM) RPE1 CCNE1 (C2), growth inhibition, three replicates
propertyLabel: EC50 (mM)
Answers are plain numbers, in mM.

Name the recorded EC50 for C[C@@]1(O)CCC[C@H]1n1c(=O)c(C(F)F)cc2cnc(NC3CCN(S(C)(=O)=O)CC3)nc21 [PF-06873600] .
0.000125

###

- tgt: WEE1 (Homo sapiens, UniProt P30291)
- Sequence (P30291 whole entry): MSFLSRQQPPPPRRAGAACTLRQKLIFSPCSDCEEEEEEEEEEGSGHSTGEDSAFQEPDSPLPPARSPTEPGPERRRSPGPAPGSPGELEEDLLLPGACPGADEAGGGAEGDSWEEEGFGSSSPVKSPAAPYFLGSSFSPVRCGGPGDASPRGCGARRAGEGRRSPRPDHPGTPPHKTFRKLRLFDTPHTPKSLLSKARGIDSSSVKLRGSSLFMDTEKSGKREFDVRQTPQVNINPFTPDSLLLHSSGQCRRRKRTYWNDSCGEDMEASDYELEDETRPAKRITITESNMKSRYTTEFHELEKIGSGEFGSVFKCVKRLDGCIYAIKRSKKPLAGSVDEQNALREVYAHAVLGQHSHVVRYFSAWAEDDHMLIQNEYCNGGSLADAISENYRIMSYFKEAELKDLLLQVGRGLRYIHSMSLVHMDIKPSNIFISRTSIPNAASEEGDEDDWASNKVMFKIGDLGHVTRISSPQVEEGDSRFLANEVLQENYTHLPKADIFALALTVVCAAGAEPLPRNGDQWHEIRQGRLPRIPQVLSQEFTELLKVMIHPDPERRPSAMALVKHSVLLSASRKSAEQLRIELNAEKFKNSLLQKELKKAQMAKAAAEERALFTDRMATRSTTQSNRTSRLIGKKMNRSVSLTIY
- procedureSummary: NanoBRET target engagement assay, WEE1 (HEK293T cells)
- setupConditions: NanoBRET, HEK293T cells, 2 h; read-out: cellular target engagement EC50 with WEE1
propertyLabel: pEC50
Numbers only, as −log10 of the molar value.

Dear colleague, I am looking for the recorded pEC50 of the following molecule: Cc1cc2c(C(N)=O)c(N)n(-c3c(C)ccc(O)c3C)c2nc1C
5.32
